molecular target: Luciferin 4-monooxygenase (Photinus pyralis); experiment: firefly luciferase enzyme inhibitors, primary screen, biochemical, luminescence, purified enzyme, 2006 set (AID 1141); conditions: SteadyGlo luminescence, 30 min, higher = more signal, called active from +8 up or from −8 down;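 also: cell-free assay with purified firefly luciferase at 100 ng per well in PBS; test concentration not given here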
Would you mind classing the entries by z-score? Ranges: lowest = under -0.2, middle = from -0.2 up to 0.7, highest = 0.7 and over

{"compound": "O=C1[C@H]2CCn3c(=O)n(-c4ccccc4)c(=O)n3[C@H]2[C@H](O)[C@@H]2O[C@H]12", "group": "middle"}
{"compound": "O=C1C[C@@H](O)[C@@H](O)[C@@H]2[C@@H]3C(=O)N(Cc4ccccc4)C(=O)[C@@H]3CC[C@H]12", "group": "middle"}
{"compound": "CCOC(=O)CCN1C(=O)[C@H]2[C@H]3[C@H](O)[C@H](O)CC(=NOCC=C(C)CCC=C(C)C)[C@H]3CC[C@H]2C1=O", "group": "middle"}
{"compound": "CCOC(=O)NN=C1C[C@@H](O)[C@@H](O)[C@@H]2[C@@H]3C(=O)N(CC)C(=O)[C@@H]3CC[C@H]12", "group": "lowest"}
{"compound": "COc1ccc(COC(=O)NN=C2C[C@@H](O)[C@@H](O)[C@@H]3[C@@H]4C(=O)N([C@@H](C)c5ccccc5)C(=O)[C@@H]4CC[C@@H]23)cc1", "group": "middle"}
{"compound": "CC#CCOCCC=C1c2ccccc2[C@@H](OC)[C@@H]1C", "group": "lowest"}
{"compound": "C=CC[C@@H]1C=C[C@H](ON=C(C)CCN2CCCc3nc(C)c(C)cc32)[C@@H](CO)O1", "group": "highest"}
{"compound": "COc1ccc(COC(=O)NN=C2C[C@@H](O)[C@@H](O)[C@@H]3[C@@H]4C(=O)N(C[C@@H]5CCCO5)C(=O)[C@@H]4CC[C@H]23)cc1", "group": "highest"}
{"compound": "CCOC(=O)[C@H](Cc1ccccc1)NC(=O)CCC1CC(OC(=O)NCc2cccc3ccccc23)CC2(CCCC(COC(=O)NCCc3ccc(Cl)cc3)O2)O1 (stereo not given in full)", "group": "highest"}
{"compound": "C[C@H]1CC[C@H]2C(=O)O[C@H](CO)CN2[C@@H]1c1ccc(Br)cc1", "group": "middle"}
{"compound": "COC(=O)CC=C[C@@H](C)[C@@H](C=NOC[C@@H](O)[C@H]1O[C@@H]2OC(C)(C)O[C@@H]2[C@H]1O)OC", "group": "lowest"}
{"compound": "CCOC(=O)[C@H](CC(C)C)NC(=O)CCC1CC(OC(=O)NCCc2ccc(F)cc2)CC2(CCCC(COC(=O)NCc3cccc(C(F)(F)F)c3)O2)O1 (stereo not given in full)", "group": "middle"}
{"compound": "COc1ccc(OC[C@H]2CN3[C@@H](CC[C@@H](C)[C@@H]3c3ccc(Br)cc3)C(=O)O2)cc1", "group": "lowest"}
{"compound": "COC(=O)CC=C[C@@H](C)[C@@H](C=NOC[C@@H](O)COCc1ccco1)NS(=O)(=O)c1ccc(C)cc1", "group": "middle"}
{"compound": "O=C1[C@H]2[C@H]3[C@H](O)[C@H](O)CC(=NO[C@@H]4O[C@H](CO)[C@@H](O)[C@H](O)[C@H]4O)[C@@H]3CC[C@H]2C(=O)N1C[C@@H]1CCCO1", "group": "highest"}

Source: PubChem BioAssay
